Tested on: HIV-1IIIB
Assay: Two-drug combination antiviral assay in CEM cells (CPE), MacSynergy II
Type: cell-based
Settings: in combination with CMX157, CEM-SS cells, 95% confidence
attributeMeasured: Synergy Volume, Result 2

Consider the compound CC(C)Nc1cccnc1N1CCN(C(=O)c2cc3cc(NS(C)(=O)=O)ccc3[nH]2)CC1 [Delavirdine (DLV), delavirdine] and give its recorded Synergy Volume, Result 2.
68.4 nM^2 %, μM^2 % or nMμM %

Return value of Synergy Volume, Result 2 for input Cc1cc(C#N)cc(C)c1Oc1nc(Nc2ccc(C#N)cc2)nc(N)c1Br [Etravirine (ETV), etravirine] , no commentary.
106 nM^2 %, μM^2 % or nMμM %

Entry CC(C)(C)NC(=O)[C@@H]1C[C@@H]2CCCC[C@@H]2CN1C[C@@H](O)[C@H](Cc1ccccc1)NC(=O)[C@H](CC(N)=O)NC(=O)c1ccc2ccccc2n1 [Saquinavir (SQV), saquinavir] needs its Synergy Volume, Result 2 filled in; supply it.
8.35 nM^2 %, μM^2 % or nMμM %

Kindly indicate its recorded Synergy Volume, Result 2. Item: Cc1cn([C@H]2C[C@H](N=[N+]=[N-])[C@@H](CO)O2)c(=O)[nH]c1=O [ZDV, 3′-azido-2′,3′-dideoxythymdine]
32.7 nM^2 %, μM^2 % or nMμM %

Output Synergy Volume, Result 2 of CC(C)CN(C[C@@H](O)[C@H](Cc1ccccc1)NC(=O)O[C@H]1CO[C@H]2OCC[C@H]21)S(=O)(=O)c1ccc(N)cc1 [Darunavir (DRV), darunavir]
11.5 nM^2 %, μM^2 % or nMμM %

Note Synergy Volume, Result 2 for the compound shown: CCC[C@@]1(CCc2ccccc2)CC(O)=C([C@H](CC)c2cccc(NS(=O)(=O)c3ccc(C(F)(F)F)cn3)c2)C(=O)O1 [Tipranavir (TPV), tipranavir]
29.4 nM^2 %, μM^2 % or nMμM %

Please supply the value of reported Synergy Volume, Result 2 for the item O=C1Nc2ccc(Cl)cc2C(C#CC2CC2)(C(F)(F)F)O1 (stereo not shown) [Efavirenz (EFV)]
80.6 nM^2 %, μM^2 % or nMμM %

Look up and state reported Synergy Volume, Result 2 for CC(C)c1nc(CN(C)C(=O)N[C@H](C(=O)N[C@@H](Cc2ccccc2)C[C@H](O)[C@H](Cc2ccccc2)NC(=O)OCc2cncs2)C(C)C)cs1 [Ritonavir (RTV), ritonavir]
38.0 nM^2 %, μM^2 % or nMμM %

Note Synergy Volume, Result 2 for the compound shown: Cc1c(O)cccc1C(=O)N[C@@H](CSc1ccccc1)[C@H](O)CN1C[C@H]2CCCC[C@H]2C[C@H]1C(=O)NC(C)(C)C [Nelfinavir (NFV), nelfinavir]
85.1 nM^2 %, μM^2 % or nMμM %

Tell me its Synergy Volume, Result 2 given CC(C)CN(C[C@@H](O)[C@H](Cc1ccccc1)NC(=O)O[C@H]1CCOC1)S(=O)(=O)c1ccc(N)cc1 [Amprenavir (APV), amprenavir] as the entry.
43.1 nM^2 %, μM^2 % or nMμM %

Could you please provide reported Synergy Volume, Result 2 for Cc1nnc(C(=O)NC(C)(C)c2nc(C(=O)NCc3ccc(F)cc3)c(O)c(=O)n2C)o1 [Raltegravir (RAL), raltegravir] ? Thanks!
1.92 nM^2 %, μM^2 % or nMμM %

Return Synergy Volume, Result 2 (reported value) for this compound: Cc1ccnc2c1NC(=O)c1cccnc1N2C1CC1 [Nevirapine (NVP), nevirapine]
41.5 nM^2 %, μM^2 % or nMμM %

Query Synergy Volume, Result 2 for Cc1cn([C@H]2C=C[C@@H](CO)O2)c(=O)[nH]c1=O [d4T, 2′,3′-didehydro-3′-deoxythymidine]
40.6 nM^2 %, μM^2 % or nMμM %

Specify Synergy Volume, Result 2 for Nc1nc(=O)n(C2CSC(CO)O2)cc1F (stereo not shown) [FTC] and stop.
72.0 nM^2 %, μM^2 % or nMμM %

Given Cc1cccc(C)c1OCC(=O)N[C@@H](Cc1ccccc1)[C@@H](O)C[C@H](Cc1ccccc1)NC(=O)[C@H](C(C)C)N1CCCNC1=O [Lopinavir (LPV), lopinavir] , respond with its Synergy Volume, Result 2.
28.3 nM^2 %, μM^2 % or nMμM %

Read the entry C[C@H](Cn1cnc2c(N)ncnc21)OCP(=O)(O)O [TFV, (R)-9-(2-phosphonylmethoxypropyl)adenine] and write its reported Synergy Volume, Result 2.
37.2 nM^2 %, μM^2 % or nMμM %

Identify measured Synergy Volume, Result 2 associated with CC(C)(C)NC(=O)[C@@H]1CN(Cc2cccnc2)CCN1C[C@@H](O)C[C@@H](Cc1ccccc1)C(=O)N[C@H]1c2ccccc2C[C@H]1O [Indinavir (IDV), indinavir]
62.7 nM^2 %, μM^2 % or nMμM %

Complete the entry with Synergy Volume, Result 2 for Nc1nc(NC2CC2)c2ncn([C@H]3C=C[C@@H](CO)C3)c2n1 [ABC, abacavir]
0 nM^2 %, μM^2 % or nMμM %

Quick one: give measured Synergy Volume, Result 2 for Nc1ccn([C@H]2CC[C@@H](CO)O2)c(=O)n1 [Zalcitabine (ddC), 2′,3′-dideoxycytidine]
80.0 nM^2 %, μM^2 % or nMμM %

// data source = patent US8993542B2
